target system: human GLP-1 receptor (human) (UniProt P43220)
Sequence (P43220 24-463): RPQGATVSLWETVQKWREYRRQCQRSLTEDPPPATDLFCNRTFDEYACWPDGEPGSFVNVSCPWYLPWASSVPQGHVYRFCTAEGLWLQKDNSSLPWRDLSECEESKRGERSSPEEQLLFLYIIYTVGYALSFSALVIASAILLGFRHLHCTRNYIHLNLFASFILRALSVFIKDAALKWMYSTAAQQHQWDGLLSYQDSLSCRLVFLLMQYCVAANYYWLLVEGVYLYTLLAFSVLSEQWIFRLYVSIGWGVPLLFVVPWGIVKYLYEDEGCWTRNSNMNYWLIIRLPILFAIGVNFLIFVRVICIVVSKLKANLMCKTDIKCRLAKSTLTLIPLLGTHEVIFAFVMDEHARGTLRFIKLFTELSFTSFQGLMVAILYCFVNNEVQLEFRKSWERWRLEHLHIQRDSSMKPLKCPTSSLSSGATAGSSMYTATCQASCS
No end group written: not given here.
measurement name: EC50 GLP1R (nM); cAMP assay on CHO-JumpIn cells with human GLP1R

HSQGTFTSDYIKLLDSRRAQDFVQWLMNT-NH2 [Peptide 7] ... 78.3

1 = HSQGTFTSDYSKYLDSRRAHDFVQWLLNT-NH2 [Peptide 11]
2 = HSQGTFTSDYSKYLDSLMAQDFVQWLMST-NH2 [Peptide 5]
3 = HSQGTFTSDYSKYLDSRRAQDFVQWLINY-NH2 [Peptide 13]
4 = HSQGTFTSDYSKYLDSRRAQDFVDWLINS-NH2 [Peptide 28]
Rank by EC50 GLP1R (nM); cAMP assay on CHO-JumpIn cells with human GLP1R (largest to smallest). Response format: the labels, sorted as the prompt asks. 2, 3, 1, 4
